Tested Target: T1, RHPN1, Q8TCX5
T1 sequence (Q8TCX5 508-602, limits assumed, looked up): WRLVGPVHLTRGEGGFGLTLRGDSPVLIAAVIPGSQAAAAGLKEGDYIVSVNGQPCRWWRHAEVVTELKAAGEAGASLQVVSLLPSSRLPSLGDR
Assay Procedure: holdup assay
Parameters: key: below the threshold = too weak to quantify, mostly under pKd 3.1 to 4
Condition Description: plain residues with an end cap or a label only (N-terminal biotin on a linker: ado-ado)
Item-by-item account of pKd

[
  {
    "Binder": "LPPPESESKV [KCNJ9, Q92806]",
    "pKd": 4.44
  },
  {
    "Binder": "GTMFLRETSL [GUCY1A2, P33402]",
    "pKd": 4.8
  },
  {
    "Binder": "DLLGGGSDSI [TNRC6B, Q9UPQ9]",
    "pKd": 3.79
  },
  {
    "Binder": "ATKDKKITTV [EXOC4, Q96A65]",
    "pKd": 4.08
  }
]
